We begin with a simple list: items and their reported log10 IC50.
# system name: Glutamate NMDA receptor
# method summary: Displacement of [3H]CPP from N-methyl-D-aspartate glutamate receptor in rat brain membrane
# Format: cell membranes
experimental readout: log10 IC50 (log10 of the value in µM)

| compound | system name | log10 IC50 |
| --- | --- | --- |
| NC(CCCCP(=O)(O)O)C(=O)O (centres undefined) | Glutamate NMDA receptor | 1.62 |
| O=C(O)C1NCCc2cc(CP(=O)(O)O)ccc21 (centres undefined) | Glutamate NMDA receptor | 1.79 |
| O=C1CN(CCCP(=O)(O)O)CC(C(=O)O)N1 (centres undefined) | Glutamate NMDA receptor | 1.48 |
| O=C(O)CNC/C=C/CP(=O)(O)O | Glutamate NMDA receptor | 0.08 |
| NC(CCCP(=O)(O)O)C(=O)O (centres undefined) | Glutamate NMDA receptor | -0.55 |
| O=C(O)CNCc1ccc(CP(=O)(O)O)cc1 | Glutamate NMDA receptor | 0.72 |
| N[C@@H](CNCP(=O)(O)O)C(=O)O | Glutamate NMDA receptor | 0.63 |
| N[C@H](CC(=O)O)C(=O)O [D-ASPARTATE] | Glutamate NMDA receptor | 1.00 |
| O=C(O)CCc1cccc2c1CCNC2C(=O)O (centres undefined) | Glutamate NMDA receptor | 1.16 |
| O=C(O)C1CN(CCCP(=O)(O)O)C(=O)CN1 (centres undefined) | Glutamate NMDA receptor | 1.51 |
| N[C@H](C(=O)O)[C@H]1C[C@H]1C(=O)O | Glutamate NMDA receptor | 1.00 |

----------
We begin with a simple list: items and their reported IC50.
# system name: Glutamate NMDA receptor
# method summary: Ability to displace [3H]CPP from NMDA receptor in rat brain membrane
# Format: cell membranes
experimental readout: IC50 (µM)

| compound | system name | experimental readout | inequality sign | value reported |
| --- | --- | --- | --- | --- |
| NC(Cc1cccc(CCP(=O)(O)O)c1)C(=O)O (configuration not stated) | Glutamate NMDA receptor | IC50 | > | 100 |
| NC(C/C=C/P(=O)(O)O)C(=O)O (configuration not stated) | Glutamate NMDA receptor | IC50 | > | 10 |
| O=C(O)CNCc1cccc(P(=O)(O)O)c1 | Glutamate NMDA receptor | IC50 | > | 100 |
| NC(C(=O)O)c1ccc(CP(=O)(O)O)c2ccccc12 (configuration not stated) | Glutamate NMDA receptor | IC50 | = | 74 |
| O=C(O)C1Cc2cc(CP(=O)(O)O)ccc2CN1 (configuration not stated) | Glutamate NMDA receptor | IC50 | = | 4.08 |
| NC(Cc1ccccc1CP(=O)(O)O)C(=O)O (configuration not stated) | Glutamate NMDA receptor | IC50 | = | 8.4 |
| O=P(O)(O)CCCN1CCNCC1 | Glutamate NMDA receptor | IC50 | > | 100 |
| O=C(O)C1CN(CCCP(=O)(O)O)CCN1 (configuration not stated) | Glutamate NMDA receptor | IC50 | = | 0.082 |
| O=C(O)CNCc1cccc(CP(=O)(O)O)c1 | Glutamate NMDA receptor | IC50 | = | 2.2 |
| O=C(O)C1Cc2c(cccc2P(=O)(O)O)CN1 (configuration not stated) | Glutamate NMDA receptor | IC50 | = | 0.82 |
| NC(C(=O)O)c1cccc(CCP(=O)(O)O)c1 (configuration not stated) | Glutamate NMDA receptor | IC50 | > | 100 |
| Cc1cc(C(N)C(=O)O)c(C)cc1CP(=O)(O)O (configuration not stated) | Glutamate NMDA receptor | IC50 | = | 21 |
| NC(C(=O)O)c1ccc(CCP(=O)(O)O)cc1 (configuration not stated) | Glutamate NMDA receptor | IC50 | > | 100 |
| NC(Cc1ccc(CP(=O)(O)O)cc1)C(=O)O (configuration not stated) | Glutamate NMDA receptor | IC50 | > | 100 |
| NC(Cc1ccc(P(=O)(O)O)cc1)C(=O)O (configuration not stated) | Glutamate NMDA receptor | IC50 | > | 100 |
| NC(Cc1ccccc1P(=O)(O)O)C(=O)O (configuration not stated) | Glutamate NMDA receptor | IC50 | > | 100 |
| NC(C(=O)O)c1ccc(CP(=O)(O)O)cc1Br (configuration not stated) | Glutamate NMDA receptor | IC50 | = | 24 |
| O=C(O)C1CC(CP(=O)(O)O)c2ccccc2N1 (configuration not stated) | Glutamate NMDA receptor | IC50 | = | 0.85 |
| NC(C(=O)O)c1ccc(CCCP(=O)(O)O)cc1 (configuration not stated) | Glutamate NMDA receptor | IC50 | > | 100 |
| O=C(O)Cc1cccnc1C(=O)O | Glutamate NMDA receptor | IC50 | = | 10 |
| Cc1cc(CP(=O)(O)O)cc(C(=O)O)n1 | Glutamate NMDA receptor | IC50 | = | 10 |
| O=C(O)CNCc1ccccc1CP(=O)(O)O | Glutamate NMDA receptor | IC50 | > | 100 |
| NC(CCCC(=O)O)C(=O)O (configuration not stated) | Glutamate NMDA receptor | IC50 | = | 13 |
| O=C(O)C1CN(Cc2cccc(P(=O)(O)O)c2)CCN1 (configuration not stated) | Glutamate NMDA receptor | IC50 | = | 83 |
| O=C(O)C1Cc2c(cccc2CP(=O)(O)O)CN1 (configuration not stated) | Glutamate NMDA receptor | IC50 | = | 1.95 |
| NC(C(=O)O)c1ccc(CP(=O)(O)O)o1 (configuration not stated) | Glutamate NMDA receptor | IC50 | = | 5.9 |
| NC(C(=O)O)C1CCC(CP(=O)(O)O)CC1 (configuration not stated) | Glutamate NMDA receptor | IC50 | = | 13 |
